target: UniProtKB P00519; experiment: Abl kinase assay, IMAP fluorescence polarization; format: biochemical
Sequence (P00519 whole entry): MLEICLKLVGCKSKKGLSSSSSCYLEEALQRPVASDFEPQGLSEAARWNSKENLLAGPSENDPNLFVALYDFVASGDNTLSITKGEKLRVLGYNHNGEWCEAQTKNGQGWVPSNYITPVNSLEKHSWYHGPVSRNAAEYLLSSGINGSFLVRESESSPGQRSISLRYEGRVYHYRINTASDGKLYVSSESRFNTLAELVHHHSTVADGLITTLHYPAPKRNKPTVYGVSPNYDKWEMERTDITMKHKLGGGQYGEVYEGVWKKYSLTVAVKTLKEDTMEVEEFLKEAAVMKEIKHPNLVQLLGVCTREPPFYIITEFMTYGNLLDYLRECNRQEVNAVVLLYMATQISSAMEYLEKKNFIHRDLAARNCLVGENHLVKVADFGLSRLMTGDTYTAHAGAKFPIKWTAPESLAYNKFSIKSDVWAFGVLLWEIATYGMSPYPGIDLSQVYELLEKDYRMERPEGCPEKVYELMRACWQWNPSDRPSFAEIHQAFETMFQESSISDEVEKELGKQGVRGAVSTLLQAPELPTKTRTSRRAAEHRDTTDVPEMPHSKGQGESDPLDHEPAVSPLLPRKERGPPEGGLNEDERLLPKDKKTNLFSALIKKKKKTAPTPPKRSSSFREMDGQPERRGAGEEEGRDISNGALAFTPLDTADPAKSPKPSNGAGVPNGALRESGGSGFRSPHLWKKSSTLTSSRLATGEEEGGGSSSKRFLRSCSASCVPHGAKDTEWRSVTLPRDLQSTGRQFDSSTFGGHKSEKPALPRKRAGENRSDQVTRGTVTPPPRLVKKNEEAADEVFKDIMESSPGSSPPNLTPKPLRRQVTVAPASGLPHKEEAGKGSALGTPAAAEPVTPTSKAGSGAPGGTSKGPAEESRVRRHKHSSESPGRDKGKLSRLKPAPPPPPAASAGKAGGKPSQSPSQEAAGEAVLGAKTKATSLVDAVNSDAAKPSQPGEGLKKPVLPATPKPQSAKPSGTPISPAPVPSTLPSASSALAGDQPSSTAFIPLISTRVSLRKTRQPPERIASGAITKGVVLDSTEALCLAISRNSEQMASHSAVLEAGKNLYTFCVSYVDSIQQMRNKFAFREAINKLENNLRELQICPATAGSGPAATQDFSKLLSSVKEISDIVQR
measurement-label: Ki

Answered cases to consult:
* Cc1cccc(Cl)c1N1Cc2cnccc2N(C2CCN(C)CC2)C1=O [Example 32] | > 10000 nM
* Cc1cccc(Cl)c1N1Cc2cnccc2N(C2CCNCC2)C1=O [Example 66] | 621 nM
* Cc1cccc(Cl)c1N1Cc2cnc(N)cc2N(C2CCN(C)CC2)C1=O [Example 7] | 271 nM
* Cc1cccc(F)c1N1Cc2cnc(N)nc2N(C2CCN(C)CC2)C1=O [Example 19] | > 1000 nM
* Cc1cccc(Cl)c1N1Cc2cncnc2N(C2CCNCC2)C1=O [Example 17] | 3950 nM

GET /values?readout=Ki&item= Cc1cccc(Cl)c1N1Cc2cnc(N)nc2N(C2CCNCC2)C1=O [Example 15] > 1000 nM

Same question, CCN1CCC(N2C(=O)N(c3c(C)cccc3F)Cc3cnc(N)nc32)CC1 [Example 20] this time > 1000 nM
